This section presents compounds with their documented mass density values.
# MEASUREMENT_SETUP: 298.15 K; 101.33 kPa; Liquid; Vibrating tube method
READOUT_KIND: mass density (kg/m3)

COMPOUND: CCCCn1cc[n+](C)c1.F[B-](F)(F)F [1-butyl-3-methylimidazolium tetrafluoroborate]
READOUT_KIND: mass density
UNIT_SPEC: kg/m3
OBSERVED_VALUE: 1201.33

COMPOUND: CCCCn1cc[n+](C)c1.COS(=O)(=O)[O-] [1-butyl-3-methylimidazolium methyl sulfate]
READOUT_KIND: mass density
UNIT_SPEC: kg/m3
OBSERVED_VALUE: 1208.61

COMPOUND: CCCC[n+]1ccn(C)c1.O=S(=O)([N-]S(=O)(=O)C(F)(F)F)C(F)(F)F
READOUT_KIND: mass density
UNIT_SPEC: kg/m3
OBSERVED_VALUE: 1435.99

COMPOUND: CC(O)CO (centres undefined) [1,2-propanediol]
READOUT_KIND: mass density
UNIT_SPEC: kg/m3
OBSERVED_VALUE: 1032.03

Where do the numbers come from? From the NIST ThermoML archive (doi:10.1016/j.fluid.2015.12.007).
